molecular target: hnRNP K (UniProt P61978 1-463); assay: fluorescence anisotropy
REPORTED ENDPOINT: Kd (nM)
The reply should be a number in nM, with the unit left off.

UCUCUUCCCUCCCUCCUUCCCUCCCCCCAU (ssRNA) [hRUNX1 int3-4] ... 13.5

Challenge: Could you share which Kd value was measured for UCCUCCUCCCUUCCCCUCCCGGUCCCUA (ssRNA) [mRunx1 int3-4] ?
Response given: 14.5
